- tgt: human PD-1 (NM_005018.2) over-expressed on cells (human, UniProt Q15116 25-288)
- Sequence (Q15116 25-288): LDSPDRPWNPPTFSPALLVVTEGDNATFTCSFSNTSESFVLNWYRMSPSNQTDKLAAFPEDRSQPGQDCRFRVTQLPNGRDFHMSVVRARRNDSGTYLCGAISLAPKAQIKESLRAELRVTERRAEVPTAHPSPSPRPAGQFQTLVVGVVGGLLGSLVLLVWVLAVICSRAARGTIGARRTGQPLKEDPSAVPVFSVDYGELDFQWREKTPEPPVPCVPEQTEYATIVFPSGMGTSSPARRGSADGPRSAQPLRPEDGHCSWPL
- assay procedure: cell-based or functional assay
Here the recorded EC50 [nM], PD1/PD-L1 blockade bioassay is given for each entry.
assay metric: EC50 [nM], PD1/PD-L1 blockade bioassay

binder="PD1-45D6(A/5B5) (antibody, V domains shown, scFv-phage in the screening ELISA; whole IgG in the other assays; also called 45D6-5B5; PD1 45D6 5B5) VH: QVQLVESGGGVVQPGRSLRLSCAASGFTFRTYAMHWVRQAPGKGLEWVAVISYDGNDKYYADSVKGRFTISRDNSKNTLYLQMNSLRAEDTAVYYCVPTTFEYWGQGTLVTVSS VL: DIVMTQTPLSLPVMPGEAASISCRSSQSLLDSEDGNTYLDWYLQKPGQSPQLLIYTLSHRASGVPDRFSGSGSGTDFTLKISRVEADDVGIYYCMQRVEFPFTFGQGTKVEIK" result="1.68 nM"
binder="PD1-41C9 (antibody, V domains shown, scFv-phage in the screening ELISA; whole IgG in the other assays) VH: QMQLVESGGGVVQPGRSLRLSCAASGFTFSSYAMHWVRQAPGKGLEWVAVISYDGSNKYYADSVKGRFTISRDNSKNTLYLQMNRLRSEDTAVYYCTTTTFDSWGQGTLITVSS VL: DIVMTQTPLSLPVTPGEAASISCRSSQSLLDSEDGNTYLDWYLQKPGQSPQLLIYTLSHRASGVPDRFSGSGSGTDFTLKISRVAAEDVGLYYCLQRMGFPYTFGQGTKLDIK" result="3.91 nM"
binder="PD1-74A11 (antibody, V domains shown) VH: QVQLVQSGGGVVQPGRSLRLSCAASGFTFSSYAMHWVRQAPGKGLEWVAVISYDGSNKYYADSVKGRFTISRDNSKNTLYLQMNSLRAEDTAVYYCARTTFDYWGQGTLITVSS VL: DIVMTQTPLSLPVTPGEPASISCRSSQSLFDSDDGNTYLDWYLQKPGQSPQLLIYTLSYRASGVPDRFSGSGSGTDFTLKISRVAAEDVGIYYCMQRVEFPFTFGQGTKVDIK" result="1.31 nM"
binder="PD1-49A2(A/1H8) (antibody, V domains shown, scFv-phage in the screening ELISA; whole IgG in the other assays; also called 49A2-1H8; PD1 49A2 1H8) VH: QVQLVESGGGVVQPGRSLRLSCAASGFTFKTYAMHWVRQAPGKGLEWVAVISYDGQHKYYADSVKGRFTISRDNSKNTLYLQMNSLRAEDTAVYYCTTTTFDSWGQGTLVTVSS VL: DIVMTQTPLSLPVTPGEPASISCRSSQSLLDRDGGHTYVDWYLQKPGQSPRLLIYTLSHRALGVPDRFSGSGSGTDFTLKISRVEADDVGLYYCMQRIEFPFTFGQGTKVEIK" result="1.21 nM"
binder="PD1-75C10 (antibody, V domains shown) VH: QVQLVESGGGVVQPGRSLRLSCAASGFTFSSYAMHWVRQAPGKGLEWVAVISYDGSNKYYADSVKGRFTISRDNSKNTLYLQMNSLRAEDTAVYYCVPTTFEYWGQGSQVTVSS VL: DIVMTQTPLSLPVTPGEAASISCRSSQSLLDSEDGNTYLDWYLQKPGQSPQLLIYTLSHRASGVPDRFSGSGSGTDFTLKITRVEAEDVGVYYCMQRIEFPYTFGQGTKLEIK" result="0.81 nM"
binder="PD1-49A2(A/1H4) (antibody, V domains shown) VH: QVQLVESGGGVVQPGRSLRLSCAASGFTFPIYAMHWVRQAPGKGLEWVAVISYDGAHKYYADSVKGRFTISRDNSKNTLYLQMNSLRAEDTAVYYCTTTTFDSWGQGTLVTVSS VL: DIVMTQSPLSLPVTPGEAASISCRSSQSLLDSEDGNTYLDWYLQKPGQSPQLLIYTLSHRASGVPDRFSGSGSGTDFTLKISRVEAEDSGIYYCMQRVEFPYTFGQGTKLDIK" result="0.84 nM"
binder="PD1-49A2(A/2A11) (antibody, V domains shown) VH: QVQLVESGGGVVQPGRSLRLSCAASGFTFRSYAMHWVRQAPGKGLEWVAVISYDGQDKYYADSVKGRFTISRDNSKNTLYLQMNSLRAEDTAVYYCTTTTFDSWGQGTLVTVSS VL: DIVMTQTPLSLPVTPGEPASISCRSSQSLFDSDDGNTYLDWYLQKPGQSPRLLIYTLSHRALGVPDRFSGSGSGTDFTLKISRVAAEDVGLYYCLQRMGFPYTFGQGTKLEIK" result="0.79 nM"
binder="PD1-45D6(A/5C8) (antibody, V domains shown) VH: QVQLVESGGGVVQPGRSLRLSCAASGFTFMRYAMHWVRQAPGKGLEWVAVISYDGNDKYYADSVKGRFTISRDNSKNTLYLQMNSLRAEDTAVYYCVPTTFEYWGQGTLVTVSS VL: DIVMTQSPLSLPVTPGEPASISCRSSQSLLDSEDGNTYLDWYLQKPGQSPQLLIYTLSHRASGVPDRFSGSGSGTDFTLKISRVEAEDVGVYYCMQRVEFPFTFGQGTKLDIK" result="1.44 nM"
binder="PD1-49A2 (antibody, V domains shown, scFv-phage in the screening ELISA; whole IgG in the other assays; also called Parent 49A2) VH: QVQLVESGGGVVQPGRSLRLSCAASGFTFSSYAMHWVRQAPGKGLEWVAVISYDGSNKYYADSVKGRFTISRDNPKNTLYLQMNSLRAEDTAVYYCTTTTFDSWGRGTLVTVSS VL: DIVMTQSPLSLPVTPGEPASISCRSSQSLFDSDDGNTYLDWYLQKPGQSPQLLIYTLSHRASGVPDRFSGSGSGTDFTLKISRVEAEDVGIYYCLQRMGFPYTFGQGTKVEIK" result="3.78 nM"
binder="PD1-72D10 (antibody, V domains shown) VH: QVQLVESGGGVVQPGRSLRLSCAASGFTFSSYAMHWVRQAPGKGLEWVAVISYDGSNKYYADSVKGRFTISRDNSKNTLYLQMNSLRAEDTAVYYCTTTTFDSWGQGTLVTVSS VL: DIVMTQTPLSLPVTPGEAASISCRSSQSLLDSEDGNTYLDWYLQKPGQSPQLLIYTLSHRASGVPDRFSGSGSGTDFTLKISRVEAEDVGIYYCMQRVEFPFTFGQGTKLEIK" result="1.21 nM"
